B1: GAGE1 (parent)
chain: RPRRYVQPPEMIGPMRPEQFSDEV

# Variants of: B1
# assay.procedure: protein stability index of a GFP-peptide fusion (GPS, HEK-293T) (PSI 1-6); higher = more stable;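 further: lentivirally expressed fusions sorted by FACS into six bins by GFP to DsRed ratio, PSI derived from sequencing read proportions per bin multiplied by bin number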
# measurement.conditions: c terminus: a fixed tail appended
observable: protein stability index
One number for each entry.

Batch request: protein stability index per item, same order as input.
1. P9D
2. Q7I
3. S21A
4. S21T
5. R1Q
6. E18H
7. E10Q
8. E18C

1: 4.61; 2: 3.63; 3: 3.69; 4: 3.71; 5: 4.23; 6: 3.46; 7: 3.69; 8: 3.21

Batch request: protein stability index per item, same order as input.
1. P14C
2. S21V
3. P17F
4. R4Q
5. M11A
6. R4K
7. R16L
8. M11H

1. 3.68
2. 3.64
3. 3.58
4. 4.66
5. 4.34
6. 3.69
7. 3.5
8. 4.37

Batch request: protein stability index per item, same order as input.
1. E18V
2. P14Y
3. M11P
4. G13A
5. E10C
6. E10H
7. P8E

1: 3.32; 2: 4.26; 3: 4.53; 4: 4.21; 5: 3.13; 6: 4.32; 7: 4.54
